Test system: 786-0
Assay: NCI tumour cell line growth inhibition, 48 h
Active and inactive are the calls of the source. Cut-off read from the data, not from the text of the source: active = GI50 up to about 1.1 µM and inactive = higher.
property-name: GI50

1. CC1(C)NC2C(=O)c3c([nH]c4ccccc34)[C@]3(C)CCC1CC23 (stereo partly specified) = > 100 µM (inactive)
2. CCOC(=O)/C(C#N)=N\Nc1ccc(-n2c(C)nc3ccccc3c2=O)cc1 = > 100 µM (inactive)
3. CCOC(=O)C12CCC(=O)N1N(C)c1ncccc1N2 (stereo unspecified) = > 100 µM (inactive)
4. CCNC(=O)/C=C/CCC#Cc1ccc(-c2ccc(-c3cccs3)s2)s1 = > 100 µM (inactive)
5. Cc1c(C)c(C)c(Cn2[nH]c(=O)n(C)c2=O)c(C)c1C = > 100 µM (inactive)
6. Cc1nnc(N)nc1/C=C\c1cccs1 = 18.6 µM (inactive)
7. CC(=O)c1ccc(Nc2c3c(nc4ccccc24)CCCC3)cc1 = 25.7 µM (inactive)
8. CCOC(=O)OC1(c2ccccc2)CCN(C)CC1 = > 100 µM (inactive)
9. CC(C)(C)OC(=O)C1CCC/C1=N/Nc1ccc([N+](=O)[O-])cc1[N+](=O)[O-] (stereo unspecified) = 23 µM (inactive)
10. COc1ccc(C2NCCc3c2[nH]c2ccccc32)cc1 (stereo unspecified) = 83.8 µM (inactive)
11. N#CC(N)(C(=O)C(=O)NCCCNC(=O)C(=O)C(N)(C#N)c1ccc(Cl)cc1)c1ccc(Cl)cc1 (stereo unspecified) = > 100 µM (inactive)
